Test system: U2OS
methodNotes: mean cytoplasmic OPP incorporation (global translation) relative to DMSO (% of DMSO); higher = more protein synthesis
conditionContext: 10 µM; 24 h
Structures can show the parent of a compound that is named as a salt. The full ranking holds about 3,100 compounds; the median of “mean cytoplasmic OPP incorporation (global translation) relative to DMSO” is about 100, and the lowest 2% start at about 56. Only a selection was taken, and the lowest values are over-represented in it overall.
Note that class boundaries on mean cytoplasmic OPP incorporation are zone 1 = under 90, zone 2 = from 90 up to 100, zone 3 = 100 and over

Input Cc1[nH]c(=O)c(C#N)cc1-c1ccncc1 ; output its category zone 2

Input C[n+]1cc2c3c(ccc2c2ccc4cc5c(cc4c21)OCO5)OCO3 [Sanguinarine chloride] ; output its category zone 1

Input O=C1NCCN1c1ncc([N+](=O)[O-])s1 ; output its category zone 2

Input Nc1ncnc2c1c(-c1cnc3[nH]ccc3c1)nn2C1CCCC1 ; output its category zone 1

Input COc1ccc(-c2nc(N3CCOCC3)c3sc(CN(C)c4ncc(C(=O)NO)cn4)cc3n2)cn1 ; output its category zone 1

Input N#CC[C@H](C1CCCC1)n1cc(-c2ncnc3[nH]ccc23)cn1 ; output its category zone 1

Input CC(C)NCCN(C(C)C)S(=O)(=O)c1ccc(Cl)cc1Cl ; output its category zone 2

Input Cc1ccc(S(=O)(=O)C=CC#N)cc1 ; output its category zone 1

Input COc1cc(C#N)ccc1S(=O)(=O)Nc1ccc2c(c1)cc(C)c(=O)n2C ; output its category zone 3

Input Clc1cc2c(NC3CCCC3)nnc(-c3ccncc3)c2cc1Cl ; output its category zone 3

Input C=CC(=O)N1CCC[C@@H](n2nc(-c3ccc(Oc4ccccc4)cc3)c3c(N)ncnc32)C1 ; output its category zone 3

Input O=C(NCCCN1CCC2(CC1)OCc1ccccc12)[C@H]1CCCN1Cc1ccccc1 ; output its category zone 3

Input Cc1c(CN2CCN(C(=O)[C@H](C)O)CC2)sc2c(N3CCOCC3)nc(-c3cnc(N)nc3)nc12 ; output its category zone 1

Input O=c1[nH]nc(Sc2ncc([N+](=O)[O-])s2)n1-c1ccc2c(c1)OCCO2 ; output its category zone 1

Input COc1cc(N2CCC(N)CC2)ccc1Nc1ncc(Cl)c(-c2c[nH]c3ccccc23)n1 ; output its category zone 1

Input COc1cc(NC(C)CCCN)c2ncccc2c1 (stereo not drawn) [Primaquine diphosphate] ; output its category zone 1

Input COc1ccc(CCN(C)CCCN2CCc3cc(OC)c(OC)cc3CC2=O)cc1OC [Zatebradine hydrochloride] ; output its category zone 3

Input Cc1nnc(-c2ccc3occ(-c4ccc([S+](C)[O-])cc4)c3c2)o1 (stereo not drawn) ; output its category zone 3

Input COc1ccc2cc3[n+](cc2c1OC)CCc1cc2c(cc1-3)OCO2 [Berberine HCl] ; output its category zone 3

Input c1cc2c(cc1C1CCCCC1)c1c3n2CCNC3CCC1 (stereo not drawn) [Tetrindole mesylate] ; output its category zone 3

Input CC(C)=CCC/C(C)=C/CC/C(C)=C/CSCC(=O)O ; output its category zone 2

Input CCN(CC)CCNC(=O)c1c(C)[nH]c(/C=C2\C(=O)Nc3ccc(Cl)cc32)c1C ; output its category zone 3

* * *

Tested on: U2OS
methodNotes: mean cytoplasmic OPP incorporation (global translation) relative to DMSO (% of DMSO); higher = more protein synthesis
conditionContext: 10 µM; 24 h
Where a name gives a salt, the structure may show the parent alone. Whole data set: some 3,100 compounds, median “mean cytoplasmic OPP incorporation (global translation) relative to DMSO” near 100, cut for the lowest 2% near 56. Many of the other results were omitted from the sample, so the lowest values are more common in it than they were.
assayReadout: mean cytoplasmic OPP incorporation
Give only the figure.

Provide measured mean cytoplasmic OPP incorporation value, entry: Cc1c(C(=O)NC2CCCCC2)sc2nc3ccc(N)cc3n12 106

Provide measured mean cytoplasmic OPP incorporation value, entry: Nc1ccc(-c2ccc3ncc4ccc(=O)n(-c5cccc(C(F)(F)F)c5)c4c3c2)cn1 [Torin 2] 67.6

Provide measured mean cytoplasmic OPP incorporation value, entry: O=C(/C=C/c1cccc(S(=O)(=O)Nc2ccccc2)c1)NO [Belinostat (PXD101)] 65.5

Provide measured mean cytoplasmic OPP incorporation value, entry: CCCCC[C@H](O)/C=C/C=C\CCCCCCCC(=O)O [13(S)-Hydroxy-9Z,11E-octadecadienoic acid] 99.3

Provide measured mean cytoplasmic OPP incorporation value, entry: NC(=O)Nc1cc(-c2cccc(F)c2)sc1C(=O)N[C@H]1CCCNC1 25.1

Provide measured mean cytoplasmic OPP incorporation value, entry: COc1ccccc1N1CCN(CCCCNC(=O)c2ccc3ccccc3c2)CC1 112

Provide measured mean cytoplasmic OPP incorporation value, entry: CNCCCCOc1ccccc1Cc1ccccc1 [Bifemelane hydrochloride] 107

Provide measured mean cytoplasmic OPP incorporation value, entry: CCCn1c(=O)c(C)cn2nc(N)nc12 104

Provide measured mean cytoplasmic OPP incorporation value, entry: Cc1cn(CCN2CCN(c3ccccc3-c3cc(C#N)cc(C(=O)NCCCN4CCCC4)c3)CC2)c2ccccc12 30.6

Provide measured mean cytoplasmic OPP incorporation value, entry: COc1ccc(-c2ccc3ncc4c(c3c2)n(-c2ccc(N3CCNCC3)c(C(F)(F)F)c2)c(=O)n4C)cn1 33.4

Provide measured mean cytoplasmic OPP incorporation value, entry: O=C(CCCCCCC(=O)Nc1cccnc1)NO [Pyroxamide] 65.9

Provide measured mean cytoplasmic OPP incorporation value, entry: Cc1ccnc(NS(=O)(=O)c2ccc(NC(=O)Nc3ccc(S(=O)(=O)Nc4nccc(C)n4)cc3)cc2)n1 96.2

Provide measured mean cytoplasmic OPP incorporation value, entry: CC(C)CC(NC(=O)OCC1c2ccccc2-c2ccccc21)C(=O)O (centres undefined) 109

Provide measured mean cytoplasmic OPP incorporation value, entry: CC(=O)NCCc1c(Cc2ccccc2)[nH]c2ccccc12 [Luzindole] 103

Provide measured mean cytoplasmic OPP incorporation value, entry: CC(C)N1Cc2cc(S(C)(=O)=O)ccc2N(CCN2CC=C(c3c[nH]c4cc(F)ccc34)CC2)S1(=O)=O 106

Provide measured mean cytoplasmic OPP incorporation value, entry: N#Cc1ccc(NCCNCC(=O)N2CCC[C@H]2C#N)nc1 [NVP DPP 728 dihydrochloride] 90.3

Provide measured mean cytoplasmic OPP incorporation value, entry: CC(C)Oc1ccc(-c2c[nH]cc2CN(C)CCN)cc1 100

Provide measured mean cytoplasmic OPP incorporation value, entry: O=C(NCCCCN1CCN(c2cccc(Cl)c2Cl)CC1)c1ccc2c(c1)Cc1ccccc1-2 107

Provide measured mean cytoplasmic OPP incorporation value, entry: CSc1ccc(/C=C2/C(C)=C(CC(=O)O)c3cc(F)ccc32)cc1 [Sulindac Sulfide] 104
